tested_target: UniProt Q9Z351
Sequence (Q9Z351 whole entry): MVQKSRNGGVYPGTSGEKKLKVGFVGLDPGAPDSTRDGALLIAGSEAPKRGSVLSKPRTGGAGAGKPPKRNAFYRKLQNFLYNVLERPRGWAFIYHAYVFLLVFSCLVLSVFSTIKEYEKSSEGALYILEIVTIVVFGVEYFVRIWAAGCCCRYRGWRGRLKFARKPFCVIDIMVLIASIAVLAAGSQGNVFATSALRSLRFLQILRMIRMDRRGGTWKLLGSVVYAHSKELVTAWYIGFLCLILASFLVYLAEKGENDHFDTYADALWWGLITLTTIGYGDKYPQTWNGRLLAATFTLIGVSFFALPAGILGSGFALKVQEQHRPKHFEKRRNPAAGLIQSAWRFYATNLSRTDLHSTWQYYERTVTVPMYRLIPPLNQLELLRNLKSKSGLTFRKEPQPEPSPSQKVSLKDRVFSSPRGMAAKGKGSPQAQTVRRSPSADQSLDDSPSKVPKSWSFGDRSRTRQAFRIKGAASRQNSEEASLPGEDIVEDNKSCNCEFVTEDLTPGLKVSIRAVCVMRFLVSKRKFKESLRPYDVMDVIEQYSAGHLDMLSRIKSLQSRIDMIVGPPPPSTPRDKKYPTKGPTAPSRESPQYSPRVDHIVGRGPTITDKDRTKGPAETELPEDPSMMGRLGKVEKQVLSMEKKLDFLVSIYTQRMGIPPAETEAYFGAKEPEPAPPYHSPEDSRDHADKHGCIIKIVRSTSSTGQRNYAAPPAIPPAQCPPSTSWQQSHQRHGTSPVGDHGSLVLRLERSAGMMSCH
assay_notes: KCNQ oocyte two-electrode voltage clamp, KCNQ2-mediated outward current
Type: cell-based
reported_conditions: at 20 μM, expressed as percent increase over KCNQ current in controls; Xenopus oocytes

- molecule: "O=C(NCc1ccc(F)cc1)c1cnc(N2CCOCC2)nc1C1CCCCC1 [Example 1]"
  tested_target: "UniProt Q9Z351"
  KCNQ2 Current: "+++ (+++ = >200%)"
- molecule: "O=C(NCc1ccc(F)cc1)c1cnc(N2CCCC2)nc1C1CCCCC1 [Example 4]"
  tested_target: "UniProt Q9Z351"
  KCNQ2 Current: "+++ (+++ = >200%)"
- molecule: "CCCc1nc(N2CCCC2)ncc1C(=O)NCc1ccc(F)cc1 [Example 9]"
  tested_target: "UniProt Q9Z351"
  KCNQ2 Current: "+++ (+++ = >200%)"
